All values here come from patent US10011586B2.

Test system: NCI-H460 cells
Assay Remarks: Cancer cell growth inhibition experiment (MTT assay)
Assay type: cell-based
Condition Set: Homo sapiens, lung cancer cell line, compounds 48 hours, cell viability by MTT assay
List of IC50 values.

Mol: O=C(C[C@H]1NCCC[C@@H]1O)Cn1cnc2ccc(-c3cccc(C(F)(F)F)c3)cc21
Value Observed: ≤ 3 µM
--
Mol: Cc1c(-c2cccc(C(F)(F)F)c2)ccc2c1ncn2CC(=O)C[C@H]1NCCC[C@@H]1O
Value Observed: ≥ 10 µM
--
Mol: N#Cc1cc(Cl)cc(-c2ccc3ncn(CC(=O)C[C@H]4NCCC[C@@H]4O)c3c2)c1
Value Observed: 3 to 10 µM
--
Mol: O=C(C[C@H]1NCCC[C@@H]1O)Cn1cnc2ccc(-c3cn[nH]c3)cc21
Value Observed: ≥ 10 µM
--
Mol: Cc1c(-c2cccc(C#N)c2)ccc2c1ncn2CC(=O)C[C@H]1NCCC[C@@H]1O
Value Observed: ≥ 10 µM

## Task Give the measured IC50 of O=C(C[C@H]1NCCC[C@@H]1O)Cn1cnc2cccc(-c3ccc(Cl)cc3)c21 .
## Result ≥ 10 µM
